Provenance of the data: patent US7595320B2

- assayed target: Aurora1 (Homo sapiens)
- Construct: His tag (N); made in house
- Sequence (Q96GD4 whole entry, species assumed): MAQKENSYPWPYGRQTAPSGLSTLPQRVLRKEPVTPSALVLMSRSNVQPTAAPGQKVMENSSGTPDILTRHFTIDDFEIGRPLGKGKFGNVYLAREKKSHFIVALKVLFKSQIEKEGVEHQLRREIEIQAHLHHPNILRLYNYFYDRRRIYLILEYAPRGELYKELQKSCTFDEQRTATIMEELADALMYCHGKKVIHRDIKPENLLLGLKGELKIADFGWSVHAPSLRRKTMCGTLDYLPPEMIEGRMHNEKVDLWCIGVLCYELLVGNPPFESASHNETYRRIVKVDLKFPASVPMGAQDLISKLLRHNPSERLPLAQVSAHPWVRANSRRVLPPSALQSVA
- Sequence (Q9NQS7 835-903 partner limits assumed, species assumed): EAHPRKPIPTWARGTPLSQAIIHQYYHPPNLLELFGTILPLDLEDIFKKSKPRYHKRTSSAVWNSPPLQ
- measurement description: Aurora1 enzymatic test, NuMA phosphorylation with [33P]ATP, Flashplate
- Format: biochemical
- condition notes: Aurora-B/INCENP-C3 recombinant complex, 1 μM ATP
Counter-ions that a name gives are not always drawn.
property name: IC50 (µM)
Numbers only, in µM.

# example entries with known answers
{"molecule": "CCN(CC)Cc1ccc(C(=O)Nc2n[nH]c3sc(C(=O)NN(C)c4ccccc4)cc23)cc1 [Example 15a, trifluoroacetate]", "observed": 0.114}
{"molecule": "COc1ccc(C(=O)Nc2n[nH]c3sc(C(=O)NNCc4ccccc4)cc23)cc1", "observed": 0.042}
{"molecule": "CN1CCN(c2ccc(C(=O)Nc3n[nH]c4sc(C(=O)NNCc5ccccc5)cc34)cc2)CC1", "observed": 0.025}
{"molecule": "CCN(NC(=O)c1cc2c(NC(=O)c3ccc(N4CCN(C)CC4)cc3)n[nH]c2s1)c1ccccc1C", "observed": 0.015}
{"molecule": "CCN(NC(=O)c1cc2c(NC(=O)c3ccc(N4CCN(C)CC4)cc3)n[nH]c2s1)c1cccc(C)c1", "observed": 0.011}
{"molecule": "CN(NC(=O)c1cc2c(NC(=O)c3ccc(CN4CCCCC4)cc3)n[nH]c2s1)c1ccccc1 [Example 17a]", "observed": 0.059}
{"molecule": "COc1ccc(C(=O)Nc2n[nH]c3sc(C(=O)NNc4ccccc4F)cc23)cc1", "observed": 0.014}

Next molecule, please.
Q: Return reported IC50; argument: CN1CCCN(Cc2ccc(C(=O)Nc3n[nH]c4sc(C(=O)NN(C)c5ccc(Cl)cc5)cc34)cc2)CC1 [Example 12b]
Result: 0.151

====

- assayed target: Aurora2 (Homo sapiens)
- Construct: Aurora2: whole recombinant protein comprising an N-terminal histidine tail; His tag (N)
- Sequence (O14965 1-403): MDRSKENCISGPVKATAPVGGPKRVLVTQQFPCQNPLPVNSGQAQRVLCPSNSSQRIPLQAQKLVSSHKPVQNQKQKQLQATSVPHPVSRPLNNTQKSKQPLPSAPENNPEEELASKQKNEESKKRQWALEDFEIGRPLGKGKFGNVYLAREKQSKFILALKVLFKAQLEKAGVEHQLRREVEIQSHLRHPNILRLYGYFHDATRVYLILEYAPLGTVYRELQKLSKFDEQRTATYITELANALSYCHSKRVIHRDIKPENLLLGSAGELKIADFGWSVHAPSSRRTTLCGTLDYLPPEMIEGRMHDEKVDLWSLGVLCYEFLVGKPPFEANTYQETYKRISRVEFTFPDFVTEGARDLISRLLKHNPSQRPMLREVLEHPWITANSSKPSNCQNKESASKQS
- measurement description: Aurora2 enzymatic test, NuMA phosphorylation with [33P]ATP, Flashplate
- condition notes: whole recombinant protein, 1 μM ATP
Where a name gives a salt, the structure may show the parent alone.
Note to self: IC50 under 8 nM means criterion met, ties and anything higher get criterion not met.

{"compound": "CN1CCN(c2ccc(C(=O)Nc3n[nH]c4sc(C(=O)NNCc5ccccc5)cc34)cc2)CC1", "assayed target": "Aurora2 (Homo sapiens)", "category": "criterion met"}
{"compound": "CC(C)N(Cc1ccc(C(=O)Nc2n[nH]c3sc(C(=O)NN(C)c4ccccc4)cc23)cc1)C(C)C [Example 25, trifluoroacetate]", "assayed target": "Aurora2 (Homo sapiens)", "category": "criterion not met"}
{"compound": "CCN(NC(=O)c1cc2c(NC(=O)c3ccc(N4CCN(C)CC4)cc3)n[nH]c2s1)c1ccccc1C", "assayed target": "Aurora2 (Homo sapiens)", "category": "criterion not met"}
{"compound": "CCN(CC)Cc1ccc(C(=O)Nc2n[nH]c3sc(C(=O)NN(C)c4ccccc4)cc23)cc1 [Example 15a, trifluoroacetate]", "assayed target": "Aurora2 (Homo sapiens)", "category": "criterion not met"}

Q: API: query returns whether the compound falls strictly under 8 nM in IC50. Query: CN1CCN(c2ccc(C(=O)Nc3n[nH]c4sc(C(=O)NN(C)Cc5ccccc5)cc34)cc2)CC1
Result: criterion met

Q: API: query returns whether the compound falls strictly under 8 nM in IC50. Query: COc1ccc(C(=O)Nc2n[nH]c3sc(C(=O)NNc4ccccn4)cc23)cc1
Result: criterion not met
